System: NCI-H226 lung
experiment description: NCI tumour cell line growth inhibition, 48 h; in the data active means GI50 below about 0.43 µM; inactive means the rest
Respond using exactly one of the listed classes: Yes = active, No = inactive

Exercise: # lookup: test call for Nc1c(C(=O)c2ccc(CCCN3CCOCC3)cc2)cnn1-c1ccc(F)cc1
Solution: No

Exercise: Now this one: O=S(=O)(Nc1cc(Cl)ccc1Cl)c1ccc(-c2cnc(C3CC3)o2)cc1
Solution: No

Exercise: Now this one: Cc1cc(O)cc(C)c1/C=C/c1cncc(-c2nn[nH]n2)c1
Solution: No

Exercise: Now this one: COC(=O)[C@H](Cc1ccc(O)cc1)NC(=O)[C@@H](OC)[C@@H]1Cc2cc3cc(OC4CC(OC5CC(O)C(O)C(C)O5)C(O)C(C)O4)c(C)c(O)c3c(O)c2C(=O)[C@H]1OC1CC(OC2CC(OC3CC(C)(O)C(O)C(C)O3)C(O)C(C)O2)C(O)C(C)O1 (stereo not given in full)
Solution: Yes

Exercise: Now this one: COc1cccc2c1c(C1=C(c3cn(C)c4ccccc34)C(=O)NC1=O)cn2C
Solution: No

Exercise: Now this one: O=C(Nc1nc2ccc(F)cc2s1)c1cccnc1Nc1ccc(Cl)cc1
Solution: No

Exercise: Now this one: S=C(N/N=C(/c1ccccc1)c1ccccn1)N1CCCCCC1
Solution: Yes

Exercise: Now this one: CC[C@@]1(O)C(=O)OCc2c1cc1n(c2=O)Cc2c-1nc1cc3c(cc1c2C)OCO3
Solution: Yes

Exercise: Now this one: Cc1ncsc1-c1ccc(CNC(=O)[C@@H]2C[C@@H](O)CN2C(=O)[C@@H](NC(=O)C2(C#N)CC2)C(C)(C)C)cc1
Solution: No

Exercise: Now this one: CCc1ccc2c(c1)N(CCO)C1=C(C(=O)OC1)C2c1cccc(Cl)c1 (stereo not given)
Solution: No
